Assay: Cmax in fasted Beagle dog at 5.0 mg/kg, po
Format: ADME, organism-based, Canis lupus familiaris
Set-up: dose 5 mg/kg, route oral
Conditions: in vivo
metric: Cmax

Lookup result for `CCC(CC)Oc1cc(C)nc(Oc2c(C)cc(C)cc2C)c1C` ; measured Cmax: 187 ng/mL

----------
Assign half-life to each entry below.
Test: Half life at terminal elimination phase in Beagle dog at 1.0 mg/kg, iv
Format: ADME, organism-based, Canis lupus familiaris
Parameters: dose 1 mg/kg, route intravenous
Conditions: in vivo
Answers are plain numbers, in h.

{"columns": ["smiles_data", "half-life [h]"],
 "data": [
  ["CCC(CC)Oc1cc(C)nc(Oc2c(C)cc(C)cc2C)c1C", 8.3]
]}

// switching to the query compound
GET /value?item= `CCC(CC)Nc1cc(C)nc(Oc2c(C)cc(C)cc2C)c1C` &field=half-life returns 8.8
